system: BRD2-BD2; assay: isothermal titration calorimetry analysis of binding; conditions: ITC Kd BRD2-BD1 / BRD2-BD2

compound | assay system | Selectivity (2-1/2-2)
CC(=O)N1c2ccc(-c3ccc[nH]3)cc2[C@H](NC(=O)OC(C)C)C[C@@H]1C [compound 54] | BRD2-BD2 | 3.7
CC(=O)N1c2ccc(-c3ccsc3)cc2[C@H](NC(=O)OC(C)C)C[C@@H]1C [compound 53] | BRD2-BD2 | 4.2
CC(=O)N1c2ccc(-c3cc[nH]c3)cc2[C@H](NC(=O)OC(C)C)C[C@@H]1C [compound 55] | BRD2-BD2 | 4.6
CC(=O)N1c2ccc(-c3ccoc3)cc2[C@H](NC(=O)OC(C)C)C[C@@H]1C [compound 51] | BRD2-BD2 | 0.5
CC(=O)N1c2ccc(-c3cccs3)cc2[C@H](NC(=O)OC(C)C)C[C@@H]1C [compound 52] | BRD2-BD2 | 2.9

###

Measured pEC50 accompanies every entry in the list below.
Molecular target: BRDT (Homo sapiens)
Assay: competitive TR-FRET assay, BET-BD with acetylated peptide ligand
Assay type: binding
Settings: Table 8; head names no target, BRDT by comparison with Table 4; read-out: EC50
Method: Inhibitor potency was determined using a competitive TR-FRET assay as detailed herein, measuring interaction of the respective BET-BD with an acetylated peptide ligand (Table 2).
pEC50: −log10 of the molar value.

compound | pEC50
CC(=O)N1c2ccc(-c3ccc(C(=O)O)cc3)cc2[C@H](Nc2ccc(Cl)cc2)C[C@@H]1C [GSK-726, IBET-726, reference compound] | 5.26
COC(=O)c1ccc(N[C@@H]2C[C@H](C)N(C(C)=O)c3ccc(-c4ccnn4C)cc32)cc1 | 5.36
COC(=O)c1ccc(N[C@@H]2C[C@H](C)N(C(C)=O)c3ccc(-c4cccc(NC(C)=O)c4)cc32)cc1 | 5.40

###

EC50 for assorted compounds
molecular target: BRD2-BD2 (Homo sapiens (Human)); assay: competitive TR-FRET assay, BET-BD with acetylated peptide ligand; format: binding; conditions: Table 8; read-out: EC50 (μM) BRD2(2)

compound | EC50 (µM)
CC(=O)N1c2ccc(-c3ccc(C(=O)O)cc3)cc2[C@H](Nc2ccc(Cl)cc2)C[C@@H]1C [GSK-726, IBET-726, reference compound] | 0.19
COC(=O)c1ccc(N[C@@H]2C[C@H](C)N(C(C)=O)c3ccc(-c4cccc(NC(C)=O)c4)cc32)cc1 | 0.11
COC(=O)c1ccc(N[C@@H]2C[C@H](C)N(C(C)=O)c3ccc(-c4ccnn4C)cc32)cc1 | 0.14

###

This section presents compounds with their documented EC50 values.
Target: BRD2-BD2 (Homo sapiens (Human), UniProt P25440)
Sequence (P25440 344-453): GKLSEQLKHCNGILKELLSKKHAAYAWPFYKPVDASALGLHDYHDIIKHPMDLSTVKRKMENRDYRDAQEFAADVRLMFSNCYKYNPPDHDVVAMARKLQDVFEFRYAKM
Assay: competitive TR-FRET assay, BET-BD with acetylated peptide ligand
Format: binding
Settings: Table 6; read-out: EC50 (μM) BRD2(2)
Method: Inhibitor potency was determined using a competitive TR-FRET assay as detailed herein, measuring interaction of the respective BET-BD with an acetylated peptide ligand (Table 2).

compound | EC50 [µM]
CC(=O)N1c2ccc(-c3ccc(C(=O)O)cc3)cc2[C@H](Nc2ccc(Cl)cc2)C[C@@H]1C [GSK-726, IBET-726, reference compound] | 0.19
CCCNc1cccc(-c2ccc3c(c2)[C@H](Nc2ccc(C(=O)OC)cc2)C[C@H](C)N3C(C)=O)c1 | 0.17
COC(=O)c1ccc(N[C@@H]2C[C@H](C)N(C(C)=O)c3ccc(-c4cccc(NCCC(F)(F)F)c4)cc32)cc1 | 0.32

Where these numbers come from: patent US11028051B2
